Just for reference, patent US20190201491A1 is where these values come from.

- TARGET SYSTEM: beta Klotho and FGFR1c (Fibroblast Growth Factor Receptor isoform 1c) expressed on the cell surface of a proprietary stable cell line (HEK293)
- ASSAY NOTES: cell-based or functional assay
[ ]: non-standard residue; d: D form. Phe(4-Ac) = CC(=O)c1ccc(C[C@H](N)C(=O)O)cc1
QUANTITY NAME: EC50 (ng/mL), STEADY-GLO Elk1 luciferase reporter assay

BINDER	MEAS VALUE
bFGF-21-K91-30KPEG (ligand, not fully specified; also: PEG: linear aminooxy-PEG) HPIPDSSPLLQFGGQVRQRYLYTDDAQETEAHLEIRADGTVVGAARQSPESLLELKALKPGVIQILGVKTSRFLCQGPDGKLYGSLHFDP[Phe(4-Ac)](PEG 30 kDa)ACSFRELLLEDGYNVYQSETLGLPLRLPPQRSSNRDPAPRGPARFLPLPGLPAAPPDPPGILAPEPPDVGSSDPLSMVEPSYGRSPSYTS	537 ng/mL
bFGF-21-G77-30KPEG (ligand, not fully specified; also: PEG: linear aminooxy-PEG) HPIPDSSPLLQFGGQVRQRYLYTDDAQETEAHLEIRADGTVVGAARQSPESLLELKALKPGVIQILGVKTSRFLCQ[Phe(4-Ac)](PEG 30 kDa)PDGKLYGSLHFDPKACSFRELLLEDGYNVYQSETLGLPLRLPPQRSSNRDPAPRGPARFLPLPGLPAAPPDPPGILAPEPPDVGSSDPLSMVEPSYGRSPSYTS	347 ng/mL
bFGF-21-Q108-30KPEG (ligand) HPIPDSSPLLQFGGQVRQRYLYTDDAQETEAHLEIRADGTVVGAARQSPESLLELKALKPGVIQILGVKTSRFLCQGPDGKLYGSLHFDPKACSFRELLLEDGYNVY[Phe(4-Ac)](PEG 30 kDa)SETLGLPLRLPPQRSSNRDPAPRGPARFLPLPGLPAAPPDPPGILAPEPPDVGSSDPLSMVGPSYGRSPSYTS	147 ng/mL
bFGF-21-R131-30KPEG (ligand, not fully specified; also: PEG: linear aminooxy-PEG) HPIPDSSPLLQFGGQVRQRYLYTDDAQETEAHLEIRADGTVVGAARQSPESLLELKALKPGVIQILGVKTSRFLCQGPDGKLYGSLHFDPKACSFRELLLEDGYNVYQSETLGLPLRLPPQRSSNRDPAP[Phe(4-Ac)](PEG 30 kDa)GPARFLPLPGLPAAPPDPPGILAPEPPDVGSSDPLSMVEPSYGRSPSYTS	556 ng/mL
